IC50 reference
- Tested on: DU-145
- method.summary: Antiproliferative activity against human DU145 cells after 48 hrs by MTT assay
- Assay type: functional, cell-based
- recorded.conditions: DU-145, 48 h

- smi: "Cc1ccc2nc(-c3c(-c4ccc(F)cc4)nc4ncccn34)[nH]c2c1"
  qual: "="
  IC50 [µM]: 10.2
- smi: "COc1ccc(-c2nc3ccccn3c2-c2nc3ccccc3[nH]2)cc1"
  qual: "="
  IC50 [µM]: 24
- smi: "Cc1ccc2nc(-c3c(-c4ccccc4)nc4ncccn34)[nH]c2c1"
  qual: "="
  IC50 [µM]: 2.34
- smi: "Fc1ccc(-c2nc3ncccn3c2-c2nc3ccc(Cl)cc3[nH]2)cc1"
  qual: "="
  IC50 [µM]: 12.6
- smi: "COc1ccc(-c2nc3ccccn3c2-c2nc3ccc(OC)cc3[nH]2)cc1"
  qual: ">"
  IC50 [µM]: 30

---

- System: DU-145
- method.summary: Antiproliferative activity against human DU145 cells after 48 hrs by MTT assay
- Type: functional, cell-based
- recorded.conditions: DU-145, 48 h
pIC50: −log10 of the molar value.
Binary call on pIC50: 1 from 5 upward, -1 beneath that.

- smi: "COc1ccc(-c2nc3ncccn3c2-c2nc3ccc(OC)cc3[nH]2)cc1"
  class.assignment: 1
- smi: "COc1ccc(-c2nc3ccccn3c2-c2nc3ccc(F)cc3[nH]2)cc1"
  class.assignment: -1
- smi: "Fc1ccc(-c2nc3ncccn3c2-c2nc3ccc(F)cc3[nH]2)cc1"
  class.assignment: -1
- smi: "COc1ccc(-c2nc3ccccn3c2-c2nc3ccc(Cl)cc3[nH]2)cc1"
  class.assignment: -1

---

- Test system: A549
- method.summary: Antiproliferative activity against human A549 cells after 48 hrs by MTT assay
- Format: functional, cell-based
- recorded.conditions: A549, 48 h
Classify: Met when IC50 is strictly less than 7 µM; Not met when IC50 is not.

- smi: "Cc1ccc2nc(-c3c(-c4ccccc4)nc4ncccn34)[nH]c2c1"
  class.assignment: "Met"
- smi: "Fc1ccc(-c2nc3ncccn3c2-c2nc3ccc(F)cc3[nH]2)cc1"
  class.assignment: "Not met"
- smi: "COc1ccc2nc(-c3c(-c4ccccc4)nc4ncccn34)[nH]c2c1"
  class.assignment: "Met"
- smi: "COc1ccc(-c2nc3ccccn3c2-c2nc3ccccc3[nH]2)cc1"
  class.assignment: "Not met"
- smi: "c1ccc(-c2nc3ncccn3c2-c2nc3ccccc3[nH]2)cc1"
  class.assignment: "Met"
- smi: "Fc1ccc(-c2nc3ncccn3c2-c2nc3ccccc3[nH]2)cc1"
  class.assignment: "Not met"
- smi: "COc1ccc(-c2nc3ncccn3c2-c2nc3ccc(F)cc3[nH]2)cc1"
  class.assignment: "Not met"
- smi: "COc1ccc(-c2nc3ncccn3c2-c2nc3ccc(C)cc3[nH]2)cc1"
  class.assignment: "Met"
- smi: "Cc1ccc2nc(-c3c(-c4ccc(F)cc4)nc4ncccn34)[nH]c2c1"
  class.assignment: "Not met"
- smi: "COC(=O)Nc1nc2cc(C(=O)c3cccs3)ccc2[nH]1"
  class.assignment: "Met"
- smi: "COc1ccc(-c2nc3ncccn3c2-c2nc3ccccc3[nH]2)cc1"
  class.assignment: "Not met"
- smi: "COc1ccc(-c2nc3ccccn3c2-c2nc3ccc(C)cc3[nH]2)cc1"
  class.assignment: "Not met"
- smi: "COc1ccc(-c2nc3ccccn3c2-c2nc3ccc(F)cc3[nH]2)cc1"
  class.assignment: "Not met"
- smi: "Fc1ccc2nc(-c3c(-c4ccccc4)nc4ncccn34)[nH]c2c1"
  class.assignment: "Not met"
- smi: "COc1ccc(-c2nc3ccccn3c2-c2nc3ccc(OC)cc3[nH]2)cc1"
  class.assignment: "Not met"
- smi: "COc1ccc2nc(-c3c(-c4ccc(F)cc4)nc4ncccn34)[nH]c2c1"
  class.assignment: "Not met"
- smi: "Fc1ccc(-c2nc3ncccn3c2-c2nc3ccc(Cl)cc3[nH]2)cc1"
  class.assignment: "Not met"
- smi: "Clc1ccc2nc(-c3c(-c4ccccc4)nc4ncccn34)[nH]c2c1"
  class.assignment: "Not met"
- smi: "COc1ccc(-c2nc3ccccn3c2-c2nc3ccc(Cl)cc3[nH]2)cc1"
  class.assignment: "Not met"
- smi: "COc1ccc(-c2nc3ncccn3c2-c2nc3ccc(Cl)cc3[nH]2)cc1"
  class.assignment: "Not met"

---

- Tested on: DU-145
- method.summary: Antiproliferative activity against human DU145 cells after 48 hrs by MTT assay
- Format: functional, cell-based
- recorded.conditions: DU-145, 48 h
Classify: yes when IC50 is strictly less than 8 µM; no when IC50 is not.

- compound: "COc1ccc2nc(-c3c(-c4ccc(F)cc4)nc4ncccn34)[nH]c2c1"
  class.assignment: "no"
- compound: "COc1ccc(-c2nc3ccccn3c2-c2nc3ccc(C)cc3[nH]2)cc1"
  class.assignment: "no"
- compound: "c1ccc(-c2nc3ncccn3c2-c2nc3ccccc3[nH]2)cc1"
  class.assignment: "yes"
- compound: "COc1ccc2nc(-c3c(-c4ccccc4)nc4ncccn34)[nH]c2c1"
  class.assignment: "yes"
- compound: "Fc1ccc2nc(-c3c(-c4ccccc4)nc4ncccn34)[nH]c2c1"
  class.assignment: "yes"
- compound: "Clc1ccc2nc(-c3c(-c4ccccc4)nc4ncccn34)[nH]c2c1"
  class.assignment: "no"
- compound: "COc1ccc(-c2nc3ncccn3c2-c2nc3ccc(Cl)cc3[nH]2)cc1"
  class.assignment: "no"
- compound: "COc1ccc(-c2nc3ncccn3c2-c2nc3ccc(C)cc3[nH]2)cc1"
  class.assignment: "yes"
- compound: "COC(=O)Nc1nc2cc(C(=O)c3cccs3)ccc2[nH]1 [NOCODAZOLE]"
  class.assignment: "yes"
